read-out: Cytochrome P450 (CYP24A1), CYP24A1 (gene 1591); experiment: LTEA_HepaRG_CYP24A1: Life Technologies and Expression Analysis (LTEA) Assay for Cytochrome P450 (CYP24A1) using HepaRG (AID 2283478); conditions: mRNA level, 48 h; actives raise or lower the signal
Active and inactive are the calls of the source. Rule for the calls: active = hit-call score of the fitted dose curve at least 0.9, where 1 is the maximum; inactive = score below 0.9.
Recorded endpoint: outcome

[
  {
    "Smiles str": "CC(C)(C)c1ccccc1O",
    "Test result": "inactive"
  },
  {
    "Smiles str": "Clc1cccc(Cl)c1",
    "Test result": "inactive"
  },
  {
    "Smiles str": "CN(C)C(=S)S",
    "Test result": "inactive"
  },
  {
    "Smiles str": "CC(C)O.CC(C)O.OCCN(CCO)CCO.OCCN(CCO)CCO.[Ti]",
    "Test result": "inactive"
  },
  {
    "Smiles str": "Oc1cc(Cl)c(Cl)cc1Cl",
    "Test result": "inactive"
  }
]

Problem: Looking for the measured outcome of "Clc1cccc(Cl)c1Cl" , can you help?
Solution: inactive

Problem: Now give it for "O=C(O)C1(c2ccc3c(c2)OC[C@H](Cc2ccc(-c4ccccc4)cc2)[C@H]3O)CCCC1" too.
Solution: inactive

Problem: Now give it for "OCCN(CCO)CCO" too.
Solution: inactive

Problem: Now give it for "Cc1cc(C)cc(C)c1" too.
Solution: inactive

Problem: Now give it for "COc1ccccc1N" too.
Solution: inactive
